Reference source for all entries: patent US20020010182A1

Below, each entry is listed alongside its reported melting point.

The cases that follow already have their melting point on record.
CC(=O)c1ccc(CN2CCN(C(=O)c3cc(C(F)(F)F)cc(C(F)(F)F)c3)[C@H](Cc3c[nH]c4ccccc34)C2)cc1.Cl | 172 °C (dec.)
COC[C@@H]1CCCN1CC#CCN1CCN(C(=O)c2cc(C(F)(F)F)cc(C(F)(F)F)c2)[C@H](Cc2ccc(C)c(C)c2)C1.Cl.Cl | 195 to 197 °C

Note melting point for the molecule shown: Cc1ccc(C[C@@H]2CN(CCCCN3CCOCC3)CCN2C(=O)c2cc(C(F)(F)F)cc(C(F)(F)F)c2)cc1C.Cl.Cl
279 °C

Note melting point for the molecule shown: Cl.Cl.O=C(c1cc(C(F)(F)F)cc(C(F)(F)F)c1)N1CCN(CCCN2CC3CCC(CC3)C2)C[C@H]1Cc1c[nH]c2ccccc12
194 to 202 °C

Note melting point for the molecule shown: Cl.Cl.O=C(c1cc(C(F)(F)F)cc(C(F)(F)F)c1)N1CCN(C/C=C/CN2CCSCC2)C[C@H]1Cc1ccc2ccccc2c1
> 230 °C

Note melting point for the molecule shown: Cl.Cl.O=C(c1cc(C(F)(F)F)cc(C(F)(F)F)c1)N1CCN(C/C=C/CN2CCOCC2)C[C@H]1Cc1c[nH]c2ccccc12
123 to 128 °C

Note melting point for the molecule shown: Cl.Cl.Cl.O=C(c1cc(C(F)(F)F)cc(C(F)(F)F)c1)N1CCN(CCCN2CCN(C3CCCCC3)CC2)C[C@H]1Cc1c[nH]c2ccccc12
250 °C (dec.)

Note melting point for the molecule shown: Cc1ccc(C[C@@H]2CN(CC#CCN3CCOCC3)CCN2C(=O)c2cc(C(F)(F)F)cc(C(F)(F)F)c2)cc1C.Cl.Cl
155 to 162 °C

----------
Below, each entry is listed alongside its reported melting point.

Note melting point for the compound shown: Cc1ccc(C[C@@H]2CN(CC#CCN3CCOCC3C)CCN2C(=O)c2cc(C(F)(F)F)cc(C(F)(F)F)c2)cc1C.Cl.Cl (stereo partly drawn) [Example 58]
150 to 160 °C

Note melting point for the compound shown: Cl.Cl.O=C(c1cc(C(F)(F)F)cc(C(F)(F)F)c1)N1CCN(CCN2CCSCC2)C[C@H]1Cc1c[nH]c2ccccc12 [Example 37-(6)]
170 to 182 °C

Note melting point for the compound shown: Cl.Cl.O=C(c1cc(C(F)(F)F)cc(C(F)(F)F)c1)N1CCN(CC#CCN2CCSCC2)C[C@H]1Cc1ccc(C(F)(F)F)cc1
173 °C (dec.)

----------
Below, each entry is listed alongside its reported melting point.

The cases that follow already have their melting point on record.
Cl.Cl.O=C(c1cc(C(F)(F)F)cc(C(F)(F)F)c1)N1CCN(CC#CCN2CCOCC2)C[C@H]1Cc1c[nH]c2ccccc12 | 165 to 169 °C
Cl.Cl.Cl.O=C(c1cc(C(F)(F)F)cc(C(F)(F)F)c1)N1CCN(CCCN2CCC(N3CCCCC3)CC2)C[C@H]1Cc1ccc(Cl)c(Cl)c1 | > 200 °C
CC(=O)c1ccccc1C(=O)N1CCN(C(=O)c2cc(C(F)(F)F)cc(C(F)(F)F)c2)[C@H](Cc2c[nH]c3ccccc23)C1 | 190 to 192 °C
Cl.Cl.O=C(c1cc(C(F)(F)F)cc(C(F)(F)F)c1)N1CCN(C/C=C/CN2CCOCC2)C[C@H]1Cc1ccc2ccccc2c1 | > 230 °C

Here is another molecule to look at.
Note melting point for the molecule shown: Cc1ccc(C[C@@H]2CN(C/C=C/CN3CCOCC3(C)C)CCN2C(=O)c2cc(C(F)(F)F)cc(C(F)(F)F)c2)cc1C.Cl.Cl
> 230 °C
